Target: T1, Human IL2Rγ extracellular domain expressed with a C-terminal myc-myc-hexahistidine tag (human)
T1 construct: also called hIL-2Rg-MMH; hIL-2RG-MMH
T1 chain: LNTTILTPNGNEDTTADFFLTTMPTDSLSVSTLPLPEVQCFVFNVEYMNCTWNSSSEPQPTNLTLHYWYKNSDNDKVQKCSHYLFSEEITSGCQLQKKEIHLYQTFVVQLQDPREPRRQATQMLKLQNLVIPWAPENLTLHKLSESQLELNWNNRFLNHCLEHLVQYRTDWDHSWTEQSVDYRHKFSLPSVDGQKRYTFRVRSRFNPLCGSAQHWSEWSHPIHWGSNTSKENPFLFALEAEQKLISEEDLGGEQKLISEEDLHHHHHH
Assay: SPR Biacore 4000, mAb captured by anti-hFc, HBS-ET, 37C
endpoint: koff (s⁻¹)
Give the value, in units of s⁻¹, as a plain number.

Query block: Endpoint output: koff of H4H12863P (antibody, human IgG4 S228P, kappa, V domains shown, anti-IL2Rγ monoclonal antibody expressed with human IgG4 Fc) VH: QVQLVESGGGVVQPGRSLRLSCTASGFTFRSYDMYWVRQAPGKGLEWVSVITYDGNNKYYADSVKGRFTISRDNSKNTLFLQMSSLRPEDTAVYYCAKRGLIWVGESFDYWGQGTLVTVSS VL: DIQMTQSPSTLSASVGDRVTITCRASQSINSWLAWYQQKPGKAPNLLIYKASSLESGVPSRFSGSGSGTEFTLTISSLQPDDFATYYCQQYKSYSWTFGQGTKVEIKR . Value?
Result block: 0.00151

Query block: Endpoint output: koff of H4H12890P (antibody, human IgG4 S228P, kappa, V domains shown, anti-IL2Rγ monoclonal antibody expressed with human IgG4 Fc) VH: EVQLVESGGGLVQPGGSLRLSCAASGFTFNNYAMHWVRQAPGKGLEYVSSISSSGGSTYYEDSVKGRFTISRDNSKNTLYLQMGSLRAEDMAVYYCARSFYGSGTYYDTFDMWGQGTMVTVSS VL: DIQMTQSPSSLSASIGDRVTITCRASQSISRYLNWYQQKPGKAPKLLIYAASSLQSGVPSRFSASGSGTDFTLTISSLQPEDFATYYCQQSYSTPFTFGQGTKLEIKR . Value?
Result block: 0.00133

Query block: Endpoint output: koff of H4H12886P (antibody, human IgG4 S228P, kappa, V domains shown, anti-IL2Rγ monoclonal antibody expressed with human IgG4 Fc) VH: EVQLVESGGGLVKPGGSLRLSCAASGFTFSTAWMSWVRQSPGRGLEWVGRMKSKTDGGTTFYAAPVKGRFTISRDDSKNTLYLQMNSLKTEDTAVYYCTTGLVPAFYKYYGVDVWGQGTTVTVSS VL: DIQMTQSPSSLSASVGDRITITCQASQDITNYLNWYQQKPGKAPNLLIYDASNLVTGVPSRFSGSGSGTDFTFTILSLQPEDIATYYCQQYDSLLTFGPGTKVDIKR . Value?
Result block: 0.000956

Query block: Endpoint output: koff of H4H12889P (antibody, human IgG4 S228P, kappa, V domains shown, anti-IL2Rγ monoclonal antibody expressed with human IgG4 Fc; also called REGN7257) VH: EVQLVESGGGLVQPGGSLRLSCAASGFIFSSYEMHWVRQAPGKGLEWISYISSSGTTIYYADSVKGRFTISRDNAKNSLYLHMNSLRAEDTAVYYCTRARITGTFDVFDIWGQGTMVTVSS VL: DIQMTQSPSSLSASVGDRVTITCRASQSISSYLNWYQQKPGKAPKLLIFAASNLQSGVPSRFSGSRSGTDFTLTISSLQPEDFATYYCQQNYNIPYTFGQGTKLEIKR . Value?
Result block: 0.00185
